Source of measurements: paper PMC10641921

system: pAKT-S473 in PC-3 cells (TORC2); experiment: Cellular p-AKT (ser473) AlphaScreen assay in PC-3 cells (TORC2 activity); format: cell-based, human; details: Homo sapiens, PC-3, read-out: pAKT S473 Cell IC50, PC-3 cell line
ATTRIBUTE_MEASURED: IC50

For Cc1cccc2c(-c3ncc4c(n3)N3CCOC[C@@]3(C)C(=O)N4C3(CCO)CC3)c[nH]c12 [15e] the molecule record lists IC50 as 5 nM

###

System: pAKT-S473 in PC-3 cells (TORC2)
Test: Cellular p-AKT (ser473) AlphaScreen assay in PC-3 cells (TORC2 activity)
Type: cell-based, human
Settings: Homo sapiens, PC-3, PC-3 cell line; read-out: pAKT S473 Cell IC50
Excerpt: The target product profile for 1 and the next-generation analogs described here was for a dual inhibitor against both TORC1 and TORC2. FRAP1 (mTOR) recombinant protein and GFP-4E-BP1 were purchased from Invitrogen (Carlsbad, CA, US). […] The release of product was detected using a BMG PHERAstar plate reader (BMG LABTECH, Ortenberg, Germany) and the Lantha Screen module (337 nm excitation wavelength) and measuring the ratio of fluorescence 520/490 nm (emission wavelengths). […]
ATTRIBUTE_MEASURED: IC50 (nM)
Your answer is read as nM, so omit the unit and give the number.

For "C[C@@]12COCCN1c1nc(-c3cncc4[nH]ccc34)ncc1N(C1CCOCC1)C2=O" the compound record lists IC50 as 17

For "Cc1ncc(-c2ncc3c(n2)N2CCOC[C@@]2(C)C(=O)N3C2CCOCC2)c2cc[nH]c12" the compound record lists IC50 as 48

For "C[C@@]12COCCN1c1nc(-c3cnc4cc[nH]c4c3)ncc1N(CC1CC1)C2=O" the compound record lists IC50 as 91

###

assay: Human liver microsome intrinsic clearance; format: in vitro ADME; conditions: apparent intrinsic clearance, scaled
Please respond with reported HLM Clint for every item in the list.
Your answer is read as mL min^–1 kg^–1, so omit the unit and give the number.

For C[C@@]12COCCN1c1nc(-c3cccc4[nH]ccc34)ncc1N([C@H]1CC[C@H](O)CC1)C2=O [14c] the molecule record lists HLM Clint as 6

For "C[C@@]12COCCN1c1nc(-c3cccc4[nH]ccc34)ncc1N(C1CCOCC1)C2=O" the molecule record lists HLM Clint as 10

For Cc1ccc(-c2ncc3c(n2)N2CCOC[C@@]2(C)C(=O)N3[C@H]2CC[C@H](O)CC2)c2cc[nH]c12 [15a] the molecule record lists HLM Clint as 6
